B1: PhoQ; a variant is named by its letters at X, in order, P23837 (parent)
chain: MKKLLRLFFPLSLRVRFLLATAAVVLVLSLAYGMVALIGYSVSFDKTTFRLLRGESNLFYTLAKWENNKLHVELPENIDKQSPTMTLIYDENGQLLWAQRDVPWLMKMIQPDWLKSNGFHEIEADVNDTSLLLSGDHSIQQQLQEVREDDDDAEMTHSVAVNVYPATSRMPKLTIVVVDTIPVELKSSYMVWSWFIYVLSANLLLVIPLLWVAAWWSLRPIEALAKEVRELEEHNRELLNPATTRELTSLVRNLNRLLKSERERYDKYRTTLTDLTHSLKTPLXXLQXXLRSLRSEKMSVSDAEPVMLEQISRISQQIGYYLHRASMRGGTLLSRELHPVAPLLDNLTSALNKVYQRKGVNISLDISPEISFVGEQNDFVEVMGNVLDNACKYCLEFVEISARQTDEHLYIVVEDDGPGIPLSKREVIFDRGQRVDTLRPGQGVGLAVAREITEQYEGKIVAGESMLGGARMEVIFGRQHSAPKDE

- Variants of: B1
- methodSummary: enrichment ratio after two sorts for PhoP signalling (ratio (wild type AVST 3.29)); higher = more functional
- measurementSetup: with PhoP (E. coli)
Whole data set: some 140,000 sequences, median “enrichment ratio after two sorts for PhoP signalling” near 0, cut for the highest 2% near 11. Many of the other results were omitted from the sample, so the highest values are more common in it than they were.
Short version: enrichment ratio at least 10 is yes (1), less is no (0).

alteration	groupLabel
APLM	no (0)
SVEG	no (0)
KQLG	no (0)
GDTD	no (0)
SYHG	no (0)

Given the entry DPMG , answer whether its enrichment ratio meets or surpasses 10.
no (0)

Given the entry DHSM , answer whether its enrichment ratio meets or surpasses 10.
no (0)
